Provenance of the data: PubChem BioAssay AID1159580

assay.details: chemical genetic growth profiling, strain panel (AID 1159580);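 also: tested at 20 µM; growth read once vehicle control cultures reached saturation at 30 °C; 1 = growth at the plate median or of vehicle wells; lower values mean less growth of the strain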
run.conditions: S. cerevisiae deletion strains, growth OD, locus YPL204W, strain HRR25, active compounds read low
Screen size: about 5,500 compounds; about 2,000 (36%) were called active. Not shown: some 18% with an inconclusive outcome. This is one part of the list.
Classes by normalized growth: lower range = under 0.7, middle range = from 0.7 up to 0.9, upper range = 0.9 and over

Examples with answers:
Which normalized growth category applies to "O=C1c2ccccc2O[C@@H](c2ccccc2)[C@@H]1NCc1ccccc1" here?
middle range

Which normalized growth category applies to "O=C(NNC(=O)c1csc(-c2cccs2)n1)c1ccc(C(F)(F)F)cc1" here?
middle range

New cases:
Which normalized growth category applies to "CC(C)(C)c1csc(NC(=O)Nc2ccc(Cl)cc2)n1" here?
lower range

Which normalized growth category applies to "CCCc1cnc(N2CCN(CC(=O)N(c3ccccc3)C3CCCCC3)CC2)nc1" here?
upper range

Which normalized growth category applies to "N#CCC(=O)c1cccc(CSc2ccccc2Cl)c1" here?
lower range

Which normalized growth category applies to "O=C(NCc1cccs1)c1csc(Cc2c(Cl)cccc2Cl)n1" here?
upper range

---

assay.details: chemical genetic growth profiling, strain panel (AID 1159580)
run.conditions: S. cerevisiae deletion strains, growth OD, locus YPR167C, strain met16, active compounds read low
In all, about 5,500 compounds went through this assay and about 2,000 (36%) were called active. Inconclusive results (about 18%) are left out. Some of the results follow.
experimental.endpoint: normalized growth
Numbers only.

See these solved cases before continuing.
Looking for the measured normalized growth of OC1C(O)C(O)C(O)C(O)C1O (stereo unspecified) , can you help?
0.985

Looking for the measured normalized growth of "Cc1cc(=O)c2c(O)c3c(cc2o1)OC(C)(C)CC3" , can you help?
0.949

Looking for the measured normalized growth of "CCN(CC)CCNc1ccc(CO)c2sc3ccccc3c(=O)c12" , can you help?
1.01

Looking for the measured normalized growth of "Cc1cc(=O)c2c(o1)-c1c(cc(O)c(O)c1C(=O)O)OC2" , can you help?
1.03

Looking for the measured normalized growth of "COc1cccc(-c2cc(=O)c3ccc(OC)cc3o2)c1" , can you help?
1.04

Consider the record given below.
Looking for the measured normalized growth of "CC1=CCc2c(cc3oc(C)cc(=O)c3c2O)OC1" , can you help?
0.963

---

assay.details: chemical genetic growth profiling, strain panel (AID 1159580)
run.conditions: S. cerevisiae deletion strains, growth OD, locus YDR001C, strain nth1, active compounds read low
Hit rate of the full screen: of about 5,500 compounds, about 2,000 (36%) were called active. Roughly 18% stayed inconclusive and do not appear here. This is one part of the list.
experimental.endpoint: normalized growth
Give bare numbers.

See these solved cases before continuing.
Looking for the measured normalized growth of COC(=O)C1=C(C)NC(C)=C(C(=O)OCCN(C)Cc2ccccc2)C1c1cccc([N+](=O)[O-])c1 (stereo not drawn) , can you help?
0.974

Looking for the measured normalized growth of "COC(=O)C1=C(C)NC(C)=C(C(=O)OC)C1c1ccccc1[N+](=O)[O-]" , can you help?
0.975

Looking for the measured normalized growth of "O=C(O)c1nc2cc(Cl)c(Cl)cc2[nH]c1=O" , can you help?
1.01

Looking for the measured normalized growth of "COc1ccc(-c2cc(=O)c3ccccc3o2)cc1" , can you help?
0.923

Looking for the measured normalized growth of "COc1ccc(-c2cc(=O)c3ccccc3o2)cc1OC" , can you help?
0.93

For the 6 molecules below, give their normalized growth values.
1. Nc1ccc(C(=O)O)c(O)c1
2. CC(=O)Nc1cccc(O)c1
3. CC(=O)Nc1ccc(O)cc1
4. S=c1ccss1
5. NC(=O)CC[C@@H](N)C(=O)O
6. CC(C)Oc1ccc2c(=O)cc(-c3ccccc3)oc2c1

0.989
1.01
1.02
1
1.02
0.943

For the 2 molecules below, give their normalized growth values.
1. COc1c(O)cccc1O
2. O=C1c2c(O)ccc(O)c2C(=O)c2c(NCCNCCO)ccc(NCCNCCO)c21

[1.02, 1.01]

---

What normalized growth was measured for each of the following?
assay.details: chemical genetic growth profiling, strain panel (AID 1159580);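 also: tested at 20 µM; growth read once vehicle control cultures reached saturation at 30 °C; 1 = growth at the plate median or of vehicle wells; lower values mean less growth of the strain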
run.conditions: S. cerevisiae deletion strains, growth OD, locus YCL016C, strain dcc1, active compounds read low
Hit rate of the full screen: of about 5,500 compounds, about 2,000 (36%) were called active. Roughly 18% stayed inconclusive and do not appear here. The list shows a part of the results.

See these solved cases before continuing.
Looking for the measured normalized growth of "CC(=O)N(O)CCCCCNC(=O)CCC(=O)N(O)CCCCCNC(=O)CCC(=O)N(O)CCCCCN" , can you help?
1.03 (inactive)

Looking for the measured normalized growth of "CCCCCCCCCCCCCCCC[n+]1ccccc1" , can you help?
0.0599 (active)

Looking for the measured normalized growth of "COc1cc([C@@H]2c3cc4c(cc3[C@H](OC(C)=O)[C@H]3COC(=O)[C@H]23)OCO4)cc(OC)c1OC" , can you help?
1.01 (inactive)

Looking for the measured normalized growth of CN1CCN2c3ccccc3Cc3ccccc3C2C1 (stereo not drawn) , can you help?
0.994 (inactive)

For the 6 compounds below, give their normalized growth values.
1. Nc1ccc(C(=O)O)c(O)c1
2. C=C1C2CC[C@@]3(C)[C@H](c4ccoc4)OC(=O)C[C@]13O[C@H]1CC(=O)C(C)(C)[C@H](C(O)C(=O)OC)[C@@]21C (stereo partly drawn)
3. O=C(O)/C=C(\CC(=O)O)C(=O)O
4. FC(F)(F)C(Cl)Br (stereo not drawn)
5. O=C1CCc2cc(OCCCCc3nnnn3C3CCCCC3)ccc2N1
6. NC(=O)CC[C@@H](N)C(=O)O

1: 0.965 (inactive); 2: 1.01 (inactive); 3: 1.01 (inactive); 4: 1.02 (inactive); 5: 1 (inactive); 6: 1.02 (inactive)

---

What normalized growth was measured for each of the following?
assay.details: chemical genetic growth profiling, strain panel (AID 1159580);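 also: tested at 20 µM; growth read once vehicle control cultures reached saturation at 30 °C; 1 = growth at the plate median or of vehicle wells; lower values mean less growth of the strain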
run.conditions: S. cerevisiae deletion strains, growth OD, locus YKR091W, strain srl3, active compounds read low
The whole screen tested about 5,500 compounds, of which about 2,000 (36%) were called active. Another 18% or so got no clear call; they are omitted. The list shows a part of the results.

See these solved cases before continuing.
Looking for the measured normalized growth of CC1(C)O[C@@H]2CC3C4C[C@H](F)C5=CC(=O)C=C[C@]5(C)[C@@]4(F)[C@@H](O)C[C@]3(C)[C@]2(C(=O)CO)O1 (stereo partly specified) , can you help?
1.01 (inactive)

Looking for the measured normalized growth of "Cc1cc2cc3c(C)cc(=O)oc3c(C)c2o1" , can you help?
1.01 (inactive)

Looking for the measured normalized growth of "CC(C)Oc1ccc2c(=O)cc(-c3ccccc3)oc2c1" , can you help?
0.965 (inactive)

Looking for the measured normalized growth of "COc1cc2cc[n+]3cc4c(OC)c(OC)ccc4cc3c2cc1OC" , can you help?
0.976 (inactive)

Looking for the measured normalized growth of OC1C(O)C(O)C(O)C(O)C1O (stereo unspecified) , can you help?
0.999 (inactive)

For the 8 molecules below, give their normalized growth values.
1. NC(=O)CC[C@@H](N)C(=O)O
2. C=CCc1ccccc1OCC(O)CNC(C)C (stereo unspecified)
3. CCCCOc1cc(CC2CNC(=O)N2)ccc1OC (stereo unspecified)
4. O=c1cc(-c2cccc(O)c2)oc2ccc(O)cc12
5. NS(=O)(=O)c1cc2c(cc1C(F)(F)F)NCNS2(=O)=O
6. FC(F)(F)C(Cl)Br (stereo unspecified)
7. CC(=O)O[C@H]1C[C@@]2(C)[C@H](c3ccoc3)OC(=O)[C@H]3O[C@]32[C@@]2(C)C1[C@]1(C)C(C[C@H]2OC(C)=O)C(C)(C)[C@H](OC(C)=O)C[C@@H]1OC(C)=O (stereo partly specified)
8. C=C1C(N)CC2CC1C2(C)C (stereo unspecified)

1.03 (inactive)
0.997 (inactive)
0.989 (inactive)
0.952 (inactive)
0.993 (inactive)
1.02 (inactive)
0.995 (inactive)
0.996 (inactive)

---

What normalized growth was measured for each of the following?
assay.details: chemical genetic growth profiling, strain panel (AID 1159580);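 also: tested at 20 µM; growth read once vehicle control cultures reached saturation at 30 °C; 1 = growth at the plate median or of vehicle wells; lower values mean less growth of the strain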
run.conditions: S. cerevisiae deletion strains, growth OD, locus YPL078C, strain atp4, active compounds read low
The whole screen tested about 5,500 compounds, of which about 2,000 (36%) were called active. Another 18% or so got no clear call; they are omitted. Some of the results follow.
Give bare numbers.

Looking for the measured normalized growth of CC(=O)[C@H]1CCC2C3CC=C4C[C@@H](OC(=O)CCC(=O)O)CC[C@]4(C)C3CC[C@@]21C (stereo partly drawn) , can you help?
0.956

Looking for the measured normalized growth of C[C@@H]1CC[C@@]2(OC1)OC1C(O)C3C4CC[C@H]5C[C@H](O[C@@H]6O[C@H](CO)[C@H](O[C@@H]7O[C@H](CO)[C@@H](O)[C@H](O[C@@H]8OC[C@@H](O)[C@H](O)[C@H]8O)[C@H]7O[C@@H]7O[C@H](CO)[C@H](O)[C@H](O[C@@H]8O[C@H](CO)[C@@H](O)[C@H](O)[C@H]8O)[C@H]7O)[C@H](O)[C@H]6O)[C@H](O)C[C@]5(C)C4CC[C@]3(C)C1[C@@H]2C (stereo partly drawn) , can you help?
0.968

Looking for the measured normalized growth of "O=C(/C=C/c1ccccc1)c1ccc(O)cc1" , can you help?
0.209

Looking for the measured normalized growth of CN(C)C(=O)Oc1cc(OC(=O)N(C)C)cc(C(O)CNC(C)(C)C)c1 (stereo not drawn) , can you help?
1.02

Looking for the measured normalized growth of OC1C(O)C(O)C(O)C(O)C1O (stereo not drawn) , can you help?
1

Looking for the measured normalized growth of CCC(/C=C/[C@@H](C)[C@H]1CCC2C3CC=C4C[C@@H](O)CC[C@]4(C)C3CC[C@@]21C)C(C)C (stereo partly drawn) , can you help?
1.01

Looking for the measured normalized growth of CC(C)(O)[C@@H]1CC[C@](C)([C@H]2[C@@H](O)C[C@@]3(C)C4C[C@H](O[C@@H]5O[C@H](CO)[C@@H](O)[C@H](O)[C@H]5O)C5C(C)(C)[C@@H](O[C@@H]6OC[C@@H](O)[C@H](O)[C@H]6O)CC[C@@]56C[C@@]46CC[C@]23C)O1 (stereo partly drawn) , can you help?
0.975

Looking for the measured normalized growth of "O=c1c(-c2ccc(O)cc2)coc2cc(O)cc(O)c12" , can you help?
1.01

For the 5 compounds below, give their normalized growth values.
1. CC(=O)OCC(=O)[C@@]1(O)CCC2C3CC[C@@H]4C[C@H](O)CC[C@]4(C)C3C(=O)C[C@@]21C (stereo partly drawn)
2. CC(=O)[C@H]1CCC2C3CC=C4C[C@@H](O)CC[C@]4(C)C3CC[C@@]21C (stereo partly drawn)
3. COc1cc2cc[n+]3cc4c(OC)c(OC)ccc4cc3c2cc1OC
4. COc1cc2c(cc1OC)-c1cc3ccc(OC)c(OC)c3c[n+]1CC2
5. CCC(CCC(C)[C@H]1CCC2C3CC=C4C[C@@H](O)CC[C@]4(C)C3CC[C@@]21C)C(C)C (stereo partly drawn)

1. 1.02
2. 0.898
3. 0.986
4. 0.986
5. 1.01

For the 5 compounds below, give their normalized growth values.
1. C[n+]1cc2c3c(ccc2c2ccc4cc5c(cc4c21)OCO5)OCO3
2. O=c1c(-c2ccccc2)coc2cc(O)cc(O)c12
3. O=C(O)/C=C(\CC(=O)O)C(=O)O
4. COc1ccc(C(=O)/C=C/c2ccccc2)cc1
5. O=C1CCc2cc(OCCCCc3nnnn3C3CCCCC3)ccc2N1

[0.538, 0.967, 1, 0.799, 0.977]
